These data points were gathered from patent US20090280138A1.

Target: T1, MHC class I molecule A*0201 (biotin (bound to streptavidin-coated plate))
T1 construct: iTopia monomer stripped of placeholder peptide and b2M, then reconstituted with test peptide and fresh b2M; also called A2; HLA-A2
Assay: iTopia peptide binding assay
Overview of recorded binding, % of positive control peptide for various binders
OBSERVABLE: binding, % of positive control peptide

| BINDER | OBSERVED RESULT |
| --- | --- |
| LHLEDNALK [5T4 9-mer peptide 132 (LHLEDNALK)] | 4 % of positive control |
| LTYVSFRNL [5T4 9-mer peptide 125 (LTYVSFRNL)] | 25 % of positive control |
| ETEVVQGKD [5T4 9-mer peptide 156 (ETEVVQGKD)] | 1 % of positive control |
| LKETEVVQG [5T4 9-mer peptide 155 (LKETEVVQG)] | 3 % of positive control |
